Target: MAGE-A11:PCF11 (Homo sapiens (Human), UniProt P43364)
Sequence (P43364 218-429): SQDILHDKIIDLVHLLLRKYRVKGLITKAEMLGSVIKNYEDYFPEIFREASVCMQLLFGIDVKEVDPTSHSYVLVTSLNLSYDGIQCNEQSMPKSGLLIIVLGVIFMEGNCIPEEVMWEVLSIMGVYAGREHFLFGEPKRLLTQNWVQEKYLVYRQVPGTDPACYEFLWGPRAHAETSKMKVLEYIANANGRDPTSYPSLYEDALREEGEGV
Experiment: TR-FRET single point screening at 15 μM
Type: binding
Design: unit not given here
Details: single point TR-FRET screening of quinoline compounds against MAGE-A11:PCF11; 15 μM
Description: TR-FRET Assays and High-throughput Screen. Terbium-anti-GST antibody, 1 M Tris pH 7.5 1 M MgCl2 and 1 M DTT were purchased from Invitrogen (Carlsbad, CA), BSA was purchased from Sigma (St. Louis, MO). Dimethyl sulfoxide (DMSO) was purchased from Fisher Scientific (Pittsburgh, PA). Black 384-well low volume plates and 384-well polypropylene compound plates were purchased from Corning Incorporated (Tewksbury, MA). […]

STRUCTURE: CCCN(CCCNc1ccnc2cc(Cl)ccc12)Cc1cccc2c1OCO2
TR-FRET signal: 18.14

STRUCTURE: Clc1ccc2c(NCCCN(Cc3ccccc3)Cc3cccc4c3OCO4)ccnc2c1
TR-FRET signal: 3.49

STRUCTURE: CCCN(CCCNc1c2ccc(Cl)cc2nc2ccc(OC)cc12)Cc1cc2ccccc2nc1Cl
TR-FRET signal: −83.74

STRUCTURE: Fc1ccc(Oc2ccc3c(NCCCNCc4ccco4)ccnc3c2)cc1
TR-FRET signal: 9.365

STRUCTURE: CCCNCCCNc1ccnc2cc(C(F)(F)F)ccc12
TR-FRET signal: 12.82

STRUCTURE: CCCN(CCCNc1ccnc2cc(C(F)(F)F)ccc12)Cc1ccccc1C(=O)O
TR-FRET signal: 16.86

STRUCTURE: COc1ccc2nc3cc(Cl)ccc3c(NCCCNCc3ccc[nH]3)c2c1
TR-FRET signal: 0.9854

STRUCTURE: CCCN(CCCNc1ccnc2cc(C(F)(F)F)ccc12)Cc1cn(C)c2ccccc12
TR-FRET signal: 25.54

STRUCTURE: CCCN(CCCNc1c2ccc(Cl)cc2nc2ccc(OC)cc12)Cc1ccc2[nH]ccc2c1
TR-FRET signal: 39.47

* * *

Molecular target: UniProtKB P43364
Assay: TR-FRET single point screening at 15 μM
Assay type: binding
Parameters: unit not given here
Conditions: single point TR-FRET screening at 15 μM against MAGE-A11:PCF11
Is TR-FRET signal at least -8? Then fulfilled. If not, not fulfilled.

STRUCTURE: COc1ccc2nc3cc(Cl)ccc3c(NCCCNCc3ccc(C)s3)c2c1
CLASS_NAME: not fulfilled
--
STRUCTURE: O=[N+]([O-])c1cccc(CN(CCCCNc2ccnc3cc(Cl)ccc23)Cc2ccccc2)c1
CLASS_NAME: fulfilled
--
STRUCTURE: COc1ccc(CN(CCCCNc2ccnc3cc(Cl)ccc23)Cc2ccccc2)cc1OC
CLASS_NAME: fulfilled
--
STRUCTURE: CCN1CCN(c2c(S(=O)(=O)c3ccc(OC)cc3)cnc3cc(OC)c(OC)cc23)CC1
CLASS_NAME: fulfilled
--
STRUCTURE: COc1ccc2nc3cc(Cl)ccc3c(NCCCNCc3cccs3)c2c1
CLASS_NAME: not fulfilled
--
STRUCTURE: Clc1ccc2c(NCCCCN(Cc3ccccc3)Cc3ccoc3)ccnc2c1
CLASS_NAME: fulfilled
--
STRUCTURE: COc1ccccc1N1CCN(c2c(S(=O)(=O)c3ccc(C)cc3)cnc3ccc(Cl)cc23)CC1
CLASS_NAME: not fulfilled

* * *

Reported TR-FRET signal values for the following compounds.
Target: MAGE-A11:PCF11 (Homo sapiens (Human))
Assay: TR-FRET single point screening at 15 μM
Assay type: binding
Set-up: unit not given here
Settings: single point TR-FRET screening of quinoline compounds against MAGE-A11:PCF11; 15 μM

COMPOUND: CCCN(CCCNc1ccnc2cc(C(F)(F)F)ccc12)CCOCc1ccccc1 [SJ000521011]
EXPERIMENTAL_SYSTEM: MAGE-A11:PCF11 (Homo sapiens (Human))
TR-FRET signal: 25.82

COMPOUND: CCCN(CCCNc1ccnc2cc(C(F)(F)F)ccc12)Cc1cc(C)ccc1C [SJ000523082]
EXPERIMENTAL_SYSTEM: MAGE-A11:PCF11 (Homo sapiens (Human))
TR-FRET signal: 21.74

COMPOUND: CCC(C)CN(CCCNc1ccnc2cc(Cl)ccc12)Cc1ccccc1 (centres unmarked) [SJ000361186]
EXPERIMENTAL_SYSTEM: MAGE-A11:PCF11 (Homo sapiens (Human))
TR-FRET signal: 29.6

COMPOUND: CCCN(CCCNc1ccnc2cc(C(F)(F)F)ccc12)Cc1c(F)cccc1OC [SJ000361262]
EXPERIMENTAL_SYSTEM: MAGE-A11:PCF11 (Homo sapiens (Human))
TR-FRET signal: 29.23

COMPOUND: CCCN(CCCNc1c2ccc(Cl)cc2nc2ccc(OC)cc12)Cc1cccc(C(F)(F)F)c1 [SJ000522986]
EXPERIMENTAL_SYSTEM: MAGE-A11:PCF11 (Homo sapiens (Human))
TR-FRET signal: 16.15

* * *

Reported IC50 values for the following compounds.
Target: interaction between GST-MAGEA11 MHD and FAM-PCF11_4 peptide (MAGE-A11:PCF11) (Homo sapiens (Human))
Experiment: TR-FRET dose response competition assay for disruption of MAGE-A11:PCF11 binding
Conditions: Dose response TR-FRET screening of nine scaffold groups against MAGE-A11:PCF11; read-out: consensus IC50

COMPOUND: CCCn1c(-c2cccc([N+](=O)[O-])c2)nc2c1c(=O)[nH]c(=O)n2Cc1ccccc1 [SJ000376601-1]
READOUT_UNIT: µM
IC50: 69.9

COMPOUND: CCCn1c(=O)[nH]c(=O)c2c1nc(-c1ccc(SC)cc1)n2CCOC [SJ000416762-1]
READOUT_UNIT: µM
IC50: 69.9

COMPOUND: COc1cccc(CNCCCNc2ccnc3cc(Cc4ccc(F)cc4Cl)ccc23)c1O [SJ000311323-1]
READOUT_UNIT: µM
IC50: 17.6

COMPOUND: COc1cccc(-c2nc(S(=O)(=O)c3ccc(Cl)cc3)c(N3CCOCC3)o2)c1 [SJ000038124-1]
READOUT_UNIT: µM
IC50: 7.43

COMPOUND: O=C1C(Cl)=C(N2CCN(S(=O)(=O)c3ccc(Br)cc3)CC2)C(=O)c2ccccc21 [SJ000033014-1]
READOUT_UNIT: µM
IC50: 69.9

COMPOUND: CCCn1c(=O)[nH]c(=O)c2c1nc(-c1ccc(NC(C)=O)cc1)n2CCN1CCOCC1 [SJ000406218-1]
READOUT_UNIT: µM
IC50: 69.9

COMPOUND: CCn1c2ccccc2c2cc(CN3CCC(N4CCN(c5ccccc5)CC4)CC3)ccc21 [SJ000112860-1]
READOUT_UNIT: µM
IC50: 69.9

COMPOUND: O=C1c2ccccc2NC(c2ccc(Br)cc2)N1Cc1ccccc1 (centres unmarked) [SJ000019546-2]
READOUT_UNIT: µM
IC50: 69.9

COMPOUND: NC1=C(Nc2cccc3ccccc23)C(=O)c2ccccc2C1=O [SJ000300361-1]
READOUT_UNIT: µM
IC50: 69.9

COMPOUND: CN(C)c1ccc(C2Nc3ccccc3C(=O)N2CCCN2CCOCC2)cc1 (centres unmarked) [SJ000803767-1]
READOUT_UNIT: µM
IC50: 71.1

COMPOUND: CCCCn1c(=O)[nH]c(=O)c2c1nc(-c1ccc(SC)cc1)n2C [SJ000382100-1]
READOUT_UNIT: µM
IC50: 69.9

COMPOUND: C=CCOc1ccc(-c2nc3c(c(=O)[nH]c(=O)n3Cc3ccccc3)n2CCCOC)cc1 [SJ000378880-1]
READOUT_UNIT: µM
IC50: 69.9

COMPOUND: C=CCOc1ccc(-c2nc3c(c(=O)[nH]c(=O)n3CCC)n2CCCC)cc1 [SJ000378878-1]
READOUT_UNIT: µM
IC50: 69.9

COMPOUND: COc1cc2nc(N3CCN(C(=O)OCc4ccccc4)C(C(=O)NC(C)(C)C)C3)nc(N)c2cc1OC (centres unmarked) [SJ000288233-2]
READOUT_UNIT: µM
IC50: 69.9

COMPOUND: COc1ccc(F)cc1CNCCCNc1ccnc2cc(Oc3ccc(Cl)cc3)ccc12 [SJ000311229-1]
READOUT_UNIT: µM
IC50: 19.7

COMPOUND: CC(C)(C)c1ccc(O)c(CNCCCNc2ccnc3cc(Cl)ccc23)c1 [SJ000311193-1]
READOUT_UNIT: µM
IC50: 30.4

COMPOUND: Cc1cc(-c2nc3c(c(=O)[nH]c(=O)n3C)n2C)ccc1Cl [SJ000517919-1]
READOUT_UNIT: µM
IC50: 69.9

* * *

Target: interaction between GST-MAGEA11 MHD and FAM-PCF11_4 peptide (MAGE-A11:PCF11) (Homo sapiens (Human), UniProt P43364)
Sequence (P43364 218-429): as above
Assay: TR-FRET dose response competition assay for disruption of MAGE-A11:PCF11 binding
Settings: Dose response TR-FRET screening of nine scaffold groups against MAGE-A11:PCF11; read-out: consensus IC50
Description: TR-FRET Assays and High-throughput Screen. Terbium-anti-GST antibody, 1 M Tris pH 7.5 1 M MgCl2 and 1 M DTT were purchased from Invitrogen (Carlsbad, CA), BSA was purchased from Sigma (St. Louis, MO). Dimethyl sulfoxide (DMSO) was purchased from Fisher Scientific (Pittsburgh, PA). Black 384-well low volume plates and 384-well polypropylene compound plates were purchased from Corning Incorporated (Tewksbury, MA). […]
Reported IC50 values for the following compounds.

COMPOUND: COc1cccc(CNCCCNc2ccnc3cc(-c4cc(C(F)(F)F)cc(C(F)(F)F)c4)ccc23)c1O [SJ000311271-1]
READOUT_UNIT: µM
IC50: 69.9

COMPOUND: CCCn1c(-c2ccc(C(=O)OC)cc2)nc2c1c(=O)[nH]c(=O)n2Cc1ccccc1 [SJ000420179-1]
READOUT_UNIT: µM
IC50: 69.9

COMPOUND: COc1ccc(-c2cc3ncn(CC(=O)NCc4ccccc4Cl)c(=O)c3s2)cc1 [SJ000449845-1]
READOUT_UNIT: µM
IC50: 69.9

COMPOUND: Cc1ccc(NC2=C(Cl)C(=O)c3ccccc3C2=O)cc1 [SJ000120750-1]
READOUT_UNIT: µM
IC50: 69.9

COMPOUND: CC(C)(C)c1ccc(Oc2ccc3c(NCCCNCc4cccc5c4OCO5)ccnc3c2)cc1 [SJ000311236-1]
READOUT_UNIT: µM
IC50: 8.67

COMPOUND: CCC(C)c1ccc(C2=C(c3ccc([N+](=O)[O-])cc3)C(=O)OC2)cc1 (centres unmarked) [SJ000368165-1]
READOUT_UNIT: µM
IC50: 69.9

COMPOUND: COc1ccc(C2Nc3ccccc3C(=O)N2Cc2ccccc2)cc1Cn1nc(C)c([N+](=O)[O-])c1C (centres unmarked) [SJ000288419-1]
READOUT_UNIT: µM
IC50: 69.9

COMPOUND: O=C1c2ccccc2NC(c2ccc(F)cc2F)N1CCCN1CCOCC1 (centres unmarked) [SJ000795275-1]
READOUT_UNIT: µM
IC50: 67.8

COMPOUND: CC(C)(C)c1ccc(-c2ccc3c(NCCCNCc4cccc5c4OCO5)ccnc3c2)cc1 [SJ000311288-1]
READOUT_UNIT: µM
IC50: 6.87

COMPOUND: CC(C)Cc1ccc2c(NCCCNCc3cccc4c3OCO4)ccnc2c1 [SJ000311260-1]
READOUT_UNIT: µM
IC50: 69.9

COMPOUND: Cc1ccccc1-c1nc(S(=O)(=O)c2ccc(F)cc2)c(N2CC(C)OC(C)C2)o1 (centres unmarked) [SJ000329031-1]
READOUT_UNIT: µM
IC50: 69.9

COMPOUND: COc1ccc(F)cc1CNCCCNc1ccnc2cc(Cc3ccc(C#N)cc3)ccc12 [SJ000311305-1]
READOUT_UNIT: µM
IC50: 69.9

COMPOUND: Cc1cccc(NC2=C(Cl)C(=O)c3ccccc3C2=O)c1 [SJ000024925-1]
READOUT_UNIT: µM
IC50: 69.9

COMPOUND: CC(C)CCc1ccc2c(NCCCNCc3cccc4c3OCO4)ccnc2c1 [SJ000311248-1]
READOUT_UNIT: µM
IC50: 27.7

COMPOUND: COc1ccc(F)cc1CNCCCNc1ccnc2cc(Oc3cccc(N(C)C)c3)ccc12 [SJ000311233-1]
READOUT_UNIT: µM
IC50: 5.63

COMPOUND: COc1ccc(F)c(CNCCCNc2ccnc3cc(C(F)(F)F)ccc23)c1 [SJ000521058-1]
READOUT_UNIT: µM
IC50: 69.9

COMPOUND: Cc1ccc(CNC(=O)Cn2cnc3cc(-c4ccc(Cl)cc4)sc3c2=O)cc1 [SJ000445272-1]
READOUT_UNIT: µM
IC50: 69.9

Provenance of the data: patent US20240246941A1
